Tested on: SF-539 CNS
Experiment: NCI tumour cell line growth inhibition, 48 h
Where a SMILES comes first, the peptide text is derived from it. The star is where a group is joined. Fmoc = O=C(OCC1c2ccccc2-c2ccccc21)*; OtBu = CC(C)(C)O*

Compound | Unit | Result Comparator | TGI
CC(=O)Nc1ccc(/C=C/C(=O)c2sc(-c3cccnc3)nc2C)cc1 | µM | > | 100
COC(=O)c1cc2c(=O)n(C)c3ccccc3n2c1C(=O)OC | µM | = | 75.8
CC1CC(N)=C(C#N)C1(C#N)C#N (stereo not given) | µM | > | 100
Cc1ccc(O)c(Cc2nc3ccccc3nc2-c2cccc(Cl)c2)c1 | µM | > | 100
CC(=O)OCCn1cnc2c(NCC=C(C)C)ncnc21 | µM | > | 100
CC(C)C(NC(=O)OCC1c2ccccc2-c2ccccc21)C(=O)NC(CCC(=O)OC(C)(C)C)C(=O)OC(C)(C)C (stereo not given) (Fmoc-Val-Glu(OtBu)-OtBu; configuration not given here) | µM | > | 92
COc1ccccc1/C=C/c1ccnc2ccccc12 | µM | = | 27.8
COc1ccc2c(c1)Cc1c(NCCN(C)C)ccc(C(=O)NCCCN(C)CCCNC(=O)c3ccc(NCCN(C)C)c4c3Nc3ccc(OC)cc3C4)c1N2 | µM | = | 2.24
O=C(C(=O)c1cc2ccccc2[nH]1)c1cc2ccccc2[nH]1 | µM | > | 347
Cc1ccc2c(c1)C(=C(C#N)C#N)CCCS2(=O)=O | µM | > | 100
CSc1ncnc2c1ncn2CCC(=O)O | µM | > | 100
NS(=O)(=O)OC[C@H]1C[C@@H](Nc2ccnc3cc(-c4cccc(SC(F)(F)F)c4)nn23)[C@H](O)[C@@H]1O | µM | = | 0.037
Cc1c2ccccc2c(C2C3C(=O)N(c4ccc(Br)cc4)C(=O)C3ON2C(C(N)=O)c2ccccc2)c2ccccc12 (stereo not given) | µM | = | 17.7
Nc1nc(Cl)cc(NCC2(O)CCC2)n1 | µM | > | 100
CCOCCOCCOCc1nc(C#N)c(N)o1 | µM | > | 100
COc1ccc(C(=O)C#Cc2cn(C3CC(O)C(CO)O3)c(=O)[nH]c2=O)cc1 (stereo not given) | µM | = | 45.1
CCOC(=O)Cc1csc(NC(NC(=O)OCC)(C(=O)OCC)C(F)(F)F)n1 (stereo not given) | µM | > | 100
OCC1C(OCc2ccccc2)C(OCc2ccccc2)C(OCc2ccccc2)CN1Cc1ccccc1 (stereo not given) | µM | > | 100
Oc1c(Cl)cc(Cl)c(Cl)c1CNCCNCc1c(O)c(Cl)cc(Cl)c1Cl | µM | = | 5.32
c1csc(-c2nn3c(C45CC6CC(CC(C6)C4)C5)nnc3s2)c1 | µM | > | 100
CC(C)(C)[Si](OC1CCOC1=O)(c1ccccc1)c1ccccc1 (stereo not given) | µM | = | 72.3
OC(CNc1ccnc2cc(Cl)ccc12)CNc1ccnc2cc(Cl)ccc12 | µM | = | 3.3
Oc1c(Br)cc(/C=C/c2ccnc(/C=C/c3cc(Br)c(O)c(Br)c3)c2)cc1Br | µM | = | 33
Cc1c(C)c2ccc3oc4ccccc4c3c2oc1=O | µM | > | 100
Nc1nc(/C=C\c2ccc([N+](=O)[O-])s2)nc(N2CCN(c3ccccc3)CC2)n1 | µM | > | 100
O=C(CCC(=O)Nc1ccc(Cl)c(Cl)c1)Cc1nc2ccccc2o1 | µM | > | 100
CC1=NN(c2nc(N)nc(CN3CCOCC3)n2)C(C)(C)C1 | µM | > | 100
Cc1c(C)n(CCCN2CCN(C)CC2)c2ccc(Oc3cccc(C(=O)N4CCN(CCc5ccc(F)cc5)CC4)c3)cc12 | µM | = | 3.03
Cc1cc(S(=O)(=O)NC2=NCc3nc4ccccc4n32)c(S)cc1Cl | µM | = | 42.7
Cc1ccc2c(=O)cc(-c3sccc3C)[nH]c2n1 | µM | = | 1.79
COc1cccc2c1c1ccc3c(c1n2C)C(=O)C=CC3=O | µM | = | 30.9
CC[C@H](C)[C@H](NC(=O)[C@H]1CCCCN1C)C(=O)N(C)[C@H](C[C@@H](OC(C)=O)c1cccc(C(=O)N[C@@H](Cc2ccccc2)C[C@H](C)C(=O)OC)n1)C(C)C | µM | = | 0.0183
COc1cc(/C=C2\CC3C4CC=C5C[C@@H](OC(C)=O)CC[C@]5(C)C4CC[C@]3(C)C2=O)ccc1OCCN1CCCCC1 (stereo not given in full) | µM | = | 3.82
O=C(Nc1ccccc1)c1cc(S(=O)(=O)Nc2n[nH]c(=O)n2-c2ccccc2)c(S)cc1Cl | µM | > | 100
C=C(CCCCC)CN1CCCC1C(C)=O (stereo not given) | µM | > | 100
COc1ccc2c(c1)C(=O)c1c-2n(CCCN(C)C)c(=O)c2ccccc12 | µM | = | 0.979
COc1ccc(Cc2c3cc(O)c(=O)cc-3ccn2C)cc1 | µM | = | 70.4
COC(COC(N)=O)C1=C(N2CC2)C(=O)C(C)=C(N2CC2)C1=O (stereo not given) | µM | = | 0.202
CC(C)[N+]([O-])(CCCNc1c2ccccc2nc2cccc([N+](=O)[O-])c12)C(C)C | µM | = | 0.24
CC(/C=C/C(=O)NO)=C\C(C)C(=O)c1ccc(N(C)C)cc1 (stereo not given) | µM | = | 2.04
